Test system: HepG2
assay.overview: Antiproliferative activity against human HepG2 cells assessed as inhibition of cell proliferation incubated for 48 hrs by MTT assay
Type: functional, cell-based
test.context: HepG2, 48 h
measurement.kind: IC50 (µM)

• CC1(C)CC[C@]2(C(=O)OCCCCCCOC(=O)c3ccc(OCc4ccc(B5OC(C)(C)C(C)(C)O5)cc4)cc3)CC[C@]3(C)[C@H](C(=O)C=C4[C@@]5(C)C=C(C#N)C(=O)C(C)(C)[C@@H]5CC[C@]43C)[C@@H]2C1 = 65

(I) CC1(C)CC[C@]2(C(=O)OCCCCCOC(=O)c3ccc(OCc4ccc(B5OC(C)(C)C(C)(C)O5)cc4)cc3)CC[C@]3(C)[C@H](C(=O)C=C4[C@@]5(C)C=C(C#N)C(=O)C(C)(C)[C@@H]5CC[C@]43C)[C@@H]2C1
(II) COc1cc(C(=O)OCCCCOC(=O)[C@]23CCC(C)(C)C[C@H]2[C@H]2C(=O)C=C4[C@@]5(C)C=C(C#N)C(=O)C(C)(C)[C@@H]5CC[C@@]4(C)[C@]2(C)CC3)cc(OC)c1OCc1ccc(B2OC(C)(C)C(C)(C)O2)cc1
INPUT: For the pair I and II , which entry has the numerically smaller recorded IC50? Response format: the label of the selected entry.
OUTPUT: I

###

Recorded IC50 at 48 h by entry
assay.overview: Cytotoxicity against human MCF-10A cells assessed as inhibition of cell proliferation incubated for 48 hrs by MTT assay
Type: toxicity, cell-based
Numeric only. Scale: µM

Answered cases to consult:
- CC1(C)CC[C@]2(C(=O)OCCCOc3ccc(NC(=O)OCc4ccc(B5OC(C)(C)C(C)(C)O5)cc4)cc3)CC[C@]3(C)[C@H](C(=O)C=C4[C@@]5(C)C=C(C#N)C(=O)C(C)(C)[C@@H]5CC[C@]43C)[C@@H]2C1: 1.8
- CC1(C)CC[C@]2(C(=O)OCCCCCCOC(=O)c3ccc(OCc4ccc(B5OC(C)(C)C(C)(C)O5)cc4)cc3)CC[C@]3(C)[C@H](C(=O)C=C4[C@@]5(C)C=C(C#N)C(=O)C(C)(C)[C@@H]5CC[C@]43C)[C@@H]2C1: 3.3
- CC1(C)CC[C@]2(C(=O)OCCCCCOc3ccc(NC(=O)OCc4ccc(B5OC(C)(C)C(C)(C)O5)cc4)cc3)CC[C@]3(C)[C@H](C(=O)C=C4[C@@]5(C)C=C(C#N)C(=O)C(C)(C)[C@@H]5CC[C@]43C)[C@@H]2C1: 5.9

INPUT: In one line, give reported IC50 at 48 h of the entry `CC1(C)CC[C@]2(C(=O)OCCCCOC(=O)c3ccc(OCc4ccc(B5OC(C)(C)C(C)(C)O5)cc4)cc3)CC[C@]3(C)[C@H](C(=O)C=C4[C@@]5(C)C=C(C#N)C(=O)C(C)(C)[C@@H]5CC[C@]43C)[C@@H]2C1` .
OUTPUT: 5

INPUT: In one line, give reported IC50 at 48 h of the entry `COc1cc(C(=O)OCCCCOC(=O)[C@]23CCC(C)(C)C[C@H]2[C@H]2C(=O)C=C4[C@@]5(C)C=C(C#N)C(=O)C(C)(C)[C@@H]5CC[C@@]4(C)[C@]2(C)CC3)ccc1OCc1ccc(B2OC(C)(C)C(C)(C)O2)cc1` .
OUTPUT: 12.4

INPUT: In one line, give reported IC50 at 48 h of the entry COC(=O)[C@]12CCC(C)(C)C[C@H]1[C@H]1C(=O)C=C3[C@@]4(C)C=C(C#N)C(=O)C(C)(C)[C@@H]4CC[C@@]3(C)[C@]1(C)CC2 [BARDOXOLONE METHYL] .
OUTPUT: 0.8

INPUT: In one line, give reported IC50 at 48 h of the entry `COc1ccc(/C=C/CC(=O)OCCCOC(=O)[C@]23CCC(C)(C)C[C@H]2[C@H]2C(=O)C=C4[C@@]5(C)C=C(C#N)C(=O)C(C)(C)[C@@H]5CC[C@@]4(C)[C@]2(C)CC3)cc1OCc1ccc(B2OC(C)(C)C(C)(C)O2)cc1` .
OUTPUT: 4

INPUT: In one line, give reported IC50 at 48 h of the entry `CC1(C)CC[C@]2(C(=O)OCCc3ccc(OCc4ccc(B5OC(C)(C)C(C)(C)O5)cc4)cc3)CC[C@]3(C)[C@H](C(=O)C=C4[C@@]5(C)C=C(C#N)C(=O)C(C)(C)[C@@H]5CC[C@]43C)[C@@H]2C1` .
OUTPUT: 1.7

INPUT: In one line, give reported IC50 at 48 h of the entry `CC1(C)CC[C@]2(C(=O)OCCCOC(=O)c3ccc(OCc4ccc(B5OC(C)(C)C(C)(C)O5)cc4)cc3)CC[C@]3(C)[C@H](C(=O)C=C4[C@@]5(C)C=C(C#N)C(=O)C(C)(C)[C@@H]5CC[C@]43C)[C@@H]2C1` .
OUTPUT: 3.1

INPUT: In one line, give reported IC50 at 48 h of the entry `COc1cc(C(=O)OCCCCOC(=O)[C@]23CCC(C)(C)C[C@H]2[C@H]2C(=O)C=C4[C@@]5(C)C=C(C#N)C(=O)C(C)(C)[C@@H]5CC[C@@]4(C)[C@]2(C)CC3)cc(OC)c1OCc1ccc(B2OC(C)(C)C(C)(C)O2)cc1` .
OUTPUT: 4

INPUT: In one line, give reported IC50 at 48 h of the entry `CC1(C)CC[C@]2(C(=O)OCCCOC(=O)Cc3ccc(OCc4ccc(B5OC(C)(C)C(C)(C)O5)cc4)cc3)CC[C@]3(C)[C@H](C(=O)C=C4[C@@]5(C)C=C(C#N)C(=O)C(C)(C)[C@@H]5CC[C@]43C)[C@@H]2C1` .
OUTPUT: 2.5
